- measured.target: human Dopamine D2L receptor (Homo sapiens, UniProt P14416)
- Construct: expressed in transfected cells; host or cells: CHO cells
- Sequence (P14416 whole entry): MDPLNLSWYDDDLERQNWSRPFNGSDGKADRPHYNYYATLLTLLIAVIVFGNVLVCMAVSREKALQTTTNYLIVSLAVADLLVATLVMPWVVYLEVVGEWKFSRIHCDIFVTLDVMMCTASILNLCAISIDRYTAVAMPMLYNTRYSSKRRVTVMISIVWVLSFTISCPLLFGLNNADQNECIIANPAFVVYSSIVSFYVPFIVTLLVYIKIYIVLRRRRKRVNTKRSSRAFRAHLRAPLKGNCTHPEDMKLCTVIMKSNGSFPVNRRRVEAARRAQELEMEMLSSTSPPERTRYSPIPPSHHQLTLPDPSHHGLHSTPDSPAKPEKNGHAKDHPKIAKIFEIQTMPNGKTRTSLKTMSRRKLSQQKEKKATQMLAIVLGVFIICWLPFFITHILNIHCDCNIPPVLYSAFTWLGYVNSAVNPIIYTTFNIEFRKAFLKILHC
- assay.procedure: In vitro binding affinity for human D2L receptor ([3H]Spiperone)
- study.conditions: human D2L receptor-transfected CHO cell membranes, [3H]Spiperone; read-out: h-D2L (converted)
# maps each entry to its IC50
measured.property: IC50 (nM)

compound	observed.value
CN(C)CC1CC2=C(O1)c1ccsc1Cc1ccccc12 (stereo not drawn) [Compound 131]	200
COc1ccccc1NC(=O)CN(C)C[C@H]1CC2=C(O1)c1cc(F)ccc1Cc1ccccc12 [Compound 119]	7940
O=S(=O)(Cc1ccccc1)N1CCN(CC2CC3=C(O2)c2cc(F)ccc2Cc2ccccc23)CC1 (stereo not drawn) [Compound 51]	100
O=C(c1ccccc1)N1CCN(CC2CC3=C(O2)c2cc(F)ccc2Oc2ccccc23)CC1 (stereo not drawn) [Compound 72]	398
CN(C)CC1CC2=C(O1)c1ccccc1N(C)c1ccccc12 (stereo not drawn) [Compound 29]	6310
O=C(Nc1ccc(F)cc1)N1CCN(CC2CC3=C(O2)c2cc(F)ccc2Oc2ccccc23)CC1 (stereo not drawn) [Compound 86]	251
C=C1c2ccccc2C2=C(OC(CNC)C2)c2ccccc21 (stereo not drawn) [Compound 11]	1580
CC(=O)N1CCN(CC2CC3=C(O2)c2cc(F)ccc2Cc2ccccc23)CC1 (stereo not drawn) [Compound 53]	200
CNCC1CC2=C(O1)c1cc(F)ccc1Cc1ccccc12 (stereo not drawn) [Compound 2]	79.4

* * *

- measured.target: human Dopamine D2L receptor (Homo sapiens)
- Construct: expressed in transfected cells; host or cells: CHO cells
- assay.procedure: In vitro binding affinity for human D2L receptor ([3H]Spiperone)
- study.conditions: human D2L receptor-transfected CHO cell membranes, [3H]Spiperone; read-out: h-D2L (converted)
# maps each entry to its IC50

compound	unit.string	IC50
CNC(=N)CN(C)CC1CC2=C(O1)c1cc(F)ccc1Cc1ccccc12 (centres unmarked)	nM	3160
Fc1ccc2c(c1)C1=C(CC(CN3CCC4(CC3)OCCO4)O1)c1ccccc1C2 (centres unmarked)	nM	50.1
O=C(NC1CCCCC1)N1CCN(CC2CC3=C(O2)c2cc(F)ccc2Cc2ccccc23)CC1 (centres unmarked)	nM	1580
CCNCC1CC2=C(O1)c1cc(F)ccc1Sc1ccccc12 (centres unmarked)	nM	15.8
CCNCC1CC2=C(O1)c1cc(F)ccc1Cc1ccccc12 (single isomer, unassigned) [Compound 15]	nM	39.8
O=C(c1ccccc1)N1CCN(CC2CC3=C(O2)c2cc(F)ccc2Cc2ccccc23)CC1 (centres unmarked)	nM	126
CS(=O)(=O)N1CCN(CC2CC3=C(O2)c2cc(F)ccc2Oc2ccccc23)CC1 (centres unmarked)	nM	794
O=C(Nc1ccccc1)N1CCN(CC2CC3=C(O2)c2cc(F)ccc2Oc2ccccc23)CC1 (centres unmarked)	nM	1000
CS(=O)(=O)N1CCN(CC2CC3=C(O2)c2cc(F)ccc2Cc2ccccc23)CC1 (centres unmarked)	nM	158
O=S(=O)(Cc1ccccc1)N1CCN(CC2CC3=C(O2)c2cc(F)ccc2Oc2ccccc23)CC1 (centres unmarked)	nM	158
CNC(=O)CN(C)C[C@H]1CC2=C(O1)c1cc(F)ccc1Cc1ccccc12	nM	3160
CN(C)CC1CC2=C(O1)c1ccccc1Cc1ccccc12 (single isomer, unassigned) [Compound 24]	nM	158
OCCC1CCN(CC2CC3=C(O2)c2cc(F)ccc2Cc2ccccc23)CC1 (centres unmarked)	nM	2
O=S(=O)(c1ccccc1)N1CCN(CC2CC3=C(O2)c2cc(F)ccc2Cc2ccccc23)CC1 (centres unmarked)	nM	3160
CCS(=O)(=O)N1CCN(CC2CC3=C(O2)c2cc(F)ccc2Oc2ccccc23)CC1 (centres unmarked)	nM	1260
CN(C)CCC1CC2=C(O1)c1cc(F)ccc1Cc1ccccc12 (centres unmarked)	nM	1580

* * *

- measured.target: human cloned 5-HT2C receptor (Homo sapiens, UniProt P28335)
- Construct: expressed in transfected cells; host or cells: CHO cells
- Sequence (P28335 33-458): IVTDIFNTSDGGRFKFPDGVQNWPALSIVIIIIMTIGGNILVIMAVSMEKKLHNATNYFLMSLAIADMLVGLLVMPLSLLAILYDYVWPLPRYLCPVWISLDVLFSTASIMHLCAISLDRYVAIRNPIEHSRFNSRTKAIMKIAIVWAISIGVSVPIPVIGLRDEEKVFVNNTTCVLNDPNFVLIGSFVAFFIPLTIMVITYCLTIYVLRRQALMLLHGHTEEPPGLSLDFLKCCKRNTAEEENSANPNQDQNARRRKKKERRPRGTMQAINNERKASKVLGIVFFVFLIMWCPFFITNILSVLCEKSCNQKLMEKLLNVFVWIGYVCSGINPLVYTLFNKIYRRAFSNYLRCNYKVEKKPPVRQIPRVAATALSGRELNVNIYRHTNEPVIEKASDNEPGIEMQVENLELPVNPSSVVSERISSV
- assay.procedure: In vitro binding affinity for 5-HT2C receptor (radioligand binding)
- study.conditions: h-5HT2C
pIC50: −log10 of the molar value.
measured.property: pIC50

CN(C/C=C/c1ccccc1)C[C@H]1CC2=C(O1)c1cc(F)ccc1Cc1ccccc12 8.30

* * *

- measured.target: human cloned 5-HT2C receptor (Homo sapiens)
- Construct: expressed in transfected cells; host or cells: CHO cells
- assay.procedure: In vitro binding affinity for 5-HT2C receptor (radioligand binding)
- study.conditions: human cloned 5-HT2C receptor, radioligand binding; read-out: h-5HT2C (converted)
One threshold, 8 nM, splits the recorded IC50 values: lower ones are Fulfilled, equal or higher ones are Not fulfilled.

molecule	discrete.label
CCCC(=O)N1CCN(CC2CC3=C(O2)c2cc(F)ccc2Cc2ccccc23)CC1 (centres unmarked)	Not fulfilled
CS(=O)(=O)N1CCN(CC2CC3=C(O2)c2cc(F)ccc2Oc2ccccc23)CC1 (centres unmarked)	Not fulfilled
CNCC1CC2=C(O1)c1c(F)cccc1Cc1ccccc12 (centres unmarked)	Fulfilled
COc1ccccc1NC[C@@H]1CC2=C(O1)c1cc(F)ccc1Cc1ccccc12	Not fulfilled
CNC[C@@H]1CC2=C(O1)c1ccccc1[C@@H](C)c1ccccc12 (racemic)	Not fulfilled
CCCn1c2c(c3ccccc31)C1=C(CC(CN(C)C)O1)c1ccccc1S2 (centres unmarked)	Not fulfilled
CCCCNC(=O)N1CCN(CC2CC3=C(O2)c2cc(F)ccc2Oc2ccccc23)CC1 (centres unmarked)	Not fulfilled
Fc1ccc2c(c1)C1=C(CC(CN3CCC4(CC3)OCCO4)O1)c1ccccc1C2 (centres unmarked)	Not fulfilled
COC(=O)CC(=O)N(C)C[C@H]1CC2=C(O1)c1cc(F)ccc1Cc1ccccc12	Not fulfilled
CCNCC1CC2=C(O1)c1cc(F)ccc1Cc1ccccc12 (single isomer, unassigned) [Compound 15]	Fulfilled
CN(C)CC1CC2=C(O1)c1ccccc1Cc1ccccc12 (single isomer, unassigned) [Compound 24]	Fulfilled
OCCN1CCN(CC2CC3=C(O2)c2cc(F)ccc2Cc2ccccc23)CC1 (centres unmarked)	Not fulfilled
COC(=O)CC(=O)N1CCN(CC2CC3=C(O2)c2cc(F)ccc2Oc2ccccc23)CC1 (centres unmarked)	Not fulfilled
O=C(OCc1ccccc1)N1CCN(CC2CC3=C(O2)c2cc(F)ccc2Oc2ccccc23)CC1 (centres unmarked)	Not fulfilled
CNC(=N)CN(C)CC1CC2=C(O1)c1cc(F)ccc1Cc1ccccc12 (centres unmarked)	Fulfilled

* * *

- measured.target: NET (Rattus norvegicus)
- Construct: Cortex from rat brain was collected and homogenised; from tissue; host or cells: rat brain cortex
- assay.procedure: In vitro determination of NET reuptake inhibition ([3H]Nixosetine binding, rat brain cortex)
- study.conditions: NET Reuptake Inhibition, rat brain cortex, [3H]Nixosetine
measured.property: IC50 (nM)

compound	unit.string	observed.value
COc1ccc(OC(=O)N2CCN(CC3CC4=C(O3)c3cc(F)ccc3Oc3ccccc34)CC2)cc1 (stereo not shown) [Compound 68]	nM	1580
O=C(Oc1ccccc1)N1CCN(CC2CC3=C(O2)c2cc(F)ccc2Cc2ccccc23)CC1 (stereo not shown) [Compound 65]	nM	3160
O=C(Oc1ccccc1)N1CCN(CC2CC3=C(O2)c2cc(F)ccc2Oc2ccccc23)CC1 (stereo not shown) [Compound 66]	nM	1260
COc1ccc(OC(=O)N2CCN(CC3CC4=C(O3)c3cc(F)ccc3Cc3ccccc34)CC2)cc1 (stereo not shown) [Compound 67]	nM	3160

* * *

- measured.target: NET (Rattus norvegicus, UniProt Q9WTR4)
- Construct: Cortex from rat brain was collected and homogenised; from tissue; host or cells: rat brain cortex
- Sequence (Q9WTR4 1-597): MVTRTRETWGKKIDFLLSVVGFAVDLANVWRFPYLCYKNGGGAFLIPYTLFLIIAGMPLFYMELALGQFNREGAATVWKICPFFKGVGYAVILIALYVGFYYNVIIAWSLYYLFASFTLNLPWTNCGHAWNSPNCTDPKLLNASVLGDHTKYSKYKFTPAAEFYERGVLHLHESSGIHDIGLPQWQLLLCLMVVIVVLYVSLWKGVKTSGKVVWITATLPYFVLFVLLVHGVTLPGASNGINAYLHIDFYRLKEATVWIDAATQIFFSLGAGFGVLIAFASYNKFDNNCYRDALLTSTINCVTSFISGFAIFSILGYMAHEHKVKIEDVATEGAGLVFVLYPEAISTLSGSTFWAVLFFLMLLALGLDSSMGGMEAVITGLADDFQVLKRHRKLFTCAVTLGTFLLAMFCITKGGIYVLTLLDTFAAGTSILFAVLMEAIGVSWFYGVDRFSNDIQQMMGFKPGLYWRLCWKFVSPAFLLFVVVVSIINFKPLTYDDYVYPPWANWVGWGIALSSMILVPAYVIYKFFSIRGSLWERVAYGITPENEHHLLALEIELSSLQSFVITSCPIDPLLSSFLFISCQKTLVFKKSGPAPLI
- assay.procedure: In vitro determination of NET reuptake inhibition ([3H]Nixosetine binding, rat brain cortex)
- study.conditions: rat brain cortex, [3H]Nixosetine; read-out: NET Reuptake Inhibition (converted)
# maps each entry to its IC50

compound	IC50, nM
CN(CCC(=O)O)C[C@H]1CC2=C(O1)c1cc(F)ccc1Cc1ccccc12	398
CN(C)CC1CC2=C(O1)c1cc(Br)ccc1Cc1ccccc12 (stereo not shown)	251
CNCC1CC2=C(O1)c1c(F)cccc1Cc1ccccc12 (stereo not shown)	100
CNCC1CC2=C(O1)c1ccccc1Cc1cccc(F)c12 (stereo not shown)	63.1
